- System: rabbit skeletal myofibrils (fast skeletal myofibrils)
- protocol_details: Activation of fast skeletal myofibrils (PUMA assay, PK/LDH-coupled ATPase at pCa25)
- Assay type: biochemical
- recorded_conditions: median AC1.4 reported as class; procedure of Example 39
assay_readout: Mean AC1.4

[
  {
    "compound": "CN1CCN(Cc2cnc(-c3ccc(NCC4(c5ncccc5F)CCC4)nn3)s2)CC1",
    "measurement_target": "rabbit skeletal myofibrils (fast skeletal myofibrils)",
    "Mean AC1.4": "B (B=1-10 uM)"
  },
  {
    "compound": "O=C1CC[C@@H](NC(=O)c2ccc(NCC3(c4ncccc4F)CCC3)nn2)CN1",
    "measurement_target": "rabbit skeletal myofibrils (fast skeletal myofibrils)",
    "Mean AC1.4": "D (D=>20 uM)"
  },
  {
    "compound": "O=C1CC[C@H](NC(=O)c2ccc(NCC3(c4ncccc4F)CCC3)nn2)CN1",
    "measurement_target": "rabbit skeletal myofibrils (fast skeletal myofibrils)",
    "Mean AC1.4": "D (D=>20 uM)"
  },
  {
    "compound": "OCc1cccc(-c2ccc(NC[C@]3(c4ncccc4F)C[C@H](F)C3)nn2)c1",
    "measurement_target": "rabbit skeletal myofibrils (fast skeletal myofibrils)",
    "Mean AC1.4": "B (B=1-10 uM)"
  },
  {
    "compound": "O=C(NC1CC(O)C1)c1cccc(-c2ccc(NC[C@]3(c4ncccc4F)C[C@H](F)C3)nn2)c1 (stereo partly shown)",
    "measurement_target": "rabbit skeletal myofibrils (fast skeletal myofibrils)",
    "Mean AC1.4": "B (B=1-10 uM)"
  }
]

[Q] Requested read-out: Mean AC1.4. Entry: O=c1cc(-c2ccc(NCC3(c4ncccc4F)CCC3)nn2)nc2[nH]ccn12
[A] B (B=1-10 uM)

[Q] Requested read-out: Mean AC1.4. Entry: Cn1cc(NC(=O)c2ccc(NCC3(c4ncccc4F)CCC3)nn2)nc1C(N)=O
[A] D (D=>20 uM)

[Q] Requested read-out: Mean AC1.4. Entry: CNC(=O)c1ccc(-c2ccc(NCC3(c4ncccc4F)CCC3)nn2)s1
[A] B (B=1-10 uM)

* * *

- Test system: rabbit skeletal myofibrils (fast skeletal myofibrils)
- protocol_details: Activation of fast skeletal myofibrils (PUMA assay, PK/LDH-coupled ATPase at pCa25)
- Assay type: biochemical
- recorded_conditions: median AC1.4 reported as class; procedure of Example 39
assay_readout: Mean AC1.4

Record excerpt, results attached:
[
  {
    "molecule": "OCCNCc1cnc(-c2ccc(NCC3(c4ncccc4F)CCC3)nn2)s1",
    "measurement": "B (B=1-10 uM)"
  },
  {
    "molecule": "COC(=O)Cc1ccc(F)c(-c2ccc(NCC3(c4ncccc4F)CCC3)nn2)c1",
    "measurement": "B (B=1-10 uM)"
  },
  {
    "molecule": "CCOC(=O)Cc1nnc(NC(=O)c2ccc(NCC3(c4ncccc4F)CCC3)nn2)s1",
    "measurement": "D (D=>20 uM)"
  },
  {
    "molecule": "O=C(N[C@H]1CCOC1)c1cccc(-c2ccc(NC[C@]3(c4ncccc4F)C[C@H](F)C3)nn2)c1",
    "measurement": "B (B=1-10 uM)"
  },
  {
    "molecule": "CN(Cc1nccs1)C(=O)c1ccc(NCC2(c3ncccc3F)CCC2)nn1",
    "measurement": "D (D=>20 uM)"
  }
]

[Q] # get_value(readout= Mean AC1.4, system= rabbit skeletal myofibrils (fast skeletal myofibrils)) for Fc1cccnc1C1(CNc2ccc(-c3ncc(CN4CCN(CC(F)(F)F)CC4)s3)nn2)CCC1
[A] B (B=1-10 uM)

[Q] # get_value(readout= Mean AC1.4, system= rabbit skeletal myofibrils (fast skeletal myofibrils)) for NC(=O)NC1CCc2nc(-c3ccc(NCC4(c5ncccc5F)CCC4)nn3)sc2C1 (centres unmarked)
[A] D (D=>20 uM)

[Q] # get_value(readout= Mean AC1.4, system= rabbit skeletal myofibrils (fast skeletal myofibrils)) for CN1CC(NC(=O)c2cccc(-c3ccc(NC[C@]4(c5ncccc5F)C[C@H](F)C4)nn3)c2)C1
[A] B (B=1-10 uM)

[Q] # get_value(readout= Mean AC1.4, system= rabbit skeletal myofibrils (fast skeletal myofibrils)) for Fc1cccnc1C1(CNc2ccc(Cc3ccccc3)nn2)CCC1
[A] D (D=>20 uM)

[Q] # get_value(readout= Mean AC1.4, system= rabbit skeletal myofibrils (fast skeletal myofibrils)) for Fc1cccnc1C1(CNc2ccc(-c3ncc(CN4CCNCC4)s3)nn2)CCC1
[A] B (B=1-10 uM)

[Q] # get_value(readout= Mean AC1.4, system= rabbit skeletal myofibrils (fast skeletal myofibrils)) for CNC(=O)c1cccc(-c2ccc(NCC3(c4ncccc4F)CCC3)nn2)c1
[A] B (B=1-10 uM)

[Q] # get_value(readout= Mean AC1.4, system= rabbit skeletal myofibrils (fast skeletal myofibrils)) for NC(=O)c1ccc(F)c(-c2ccc(NCC3(c4ncccc4F)CCC3)nn2)c1O
[A] A (A=<1 uM)

[Q] # get_value(readout= Mean AC1.4, system= rabbit skeletal myofibrils (fast skeletal myofibrils)) for O=C(O)C1CCc2sc(-c3ccc(NCC4(c5ncccc5F)CCC4)nn3)nc21 (centres unmarked)
[A] D (D=>20 uM)

[Q] # get_value(readout= Mean AC1.4, system= rabbit skeletal myofibrils (fast skeletal myofibrils)) for NC(=O)c1cc(-c2ccc(NC[C@]3(c4ncccc4F)C[C@H](F)C3)nn2)c(F)cc1O
[A] A (A=<1 uM)

[Q] # get_value(readout= Mean AC1.4, system= rabbit skeletal myofibrils (fast skeletal myofibrils)) for O=C1NCc2c1cccc2-c1ccc(NC[C@]2(c3ncccc3F)C[C@H](F)C2)nn1
[A] B (B=1-10 uM)

[Q] # get_value(readout= Mean AC1.4, system= rabbit skeletal myofibrils (fast skeletal myofibrils)) for NC(=O)c1cc(-c2ccc(NC[C@]3(c4ncccc4F)C[C@H](F)C3)nn2)cc(C(F)(F)F)c1
[A] B (B=1-10 uM)
